Quick reference for sfGFP reporter fluorescence among some variants
B1: library; numbered along this chain (parent)
chain: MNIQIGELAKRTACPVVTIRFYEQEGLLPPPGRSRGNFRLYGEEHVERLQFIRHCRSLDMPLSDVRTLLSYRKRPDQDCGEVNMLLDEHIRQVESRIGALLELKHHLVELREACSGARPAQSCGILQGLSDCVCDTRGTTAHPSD

Variants of: B1
METHOD_NOTES: sfGFP reporter fluorescence (15 h) (µM FITC); higher = higher leak
CONDITION_NOTES: library round: Round 0; ligand: none
I only need the number, thanks.

Problem: Looking for the measured sfGFP reporter fluorescence of `C79K` , can you help?
Solution: 0.0601

Problem: Field request: sfGFP reporter fluorescence | item: `F21S`
Solution: 0.0634

Problem: For the variant shown here, `L110T` , give the reported sfGFP reporter fluorescence.
Solution: 0.0574

Problem: Returns the measured sfGFP reporter fluorescence for the input variant. Input: M60L P61N L107C
Solution: 1.39

Problem: Query (variant): `R33A` ; field requested: sfGFP reporter fluorescence
Solution: 0.0614

Problem: Quick one: sfGFP reporter fluorescence of M60L P61N K104V L107C ?
Solution: 0.535
